experiment: NCI Yeast Anticancer Drug Screen. Data for the rad50 strain (AID 155);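 note: 0% = growth of vehicle-only cultures of the same strain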; conditions: S. cerevisiae rad50 strain growth inhibition; at 1.2 µM; hits give high values
Compounds without any hit were thinned out: in the full panel of roughly 79,000, 15% have a hit. Calls of active or inactive are those of the source. Cut-off read from the data, not from the text of the source: active = growth inhibition above about 70%; inactive = the rest.
OBSERVABLE: growth inhibition

[
  {
    "MOLECULE": "Nc1nc(N)c2c(Cl)c(CNc3ccc(C(=O)NC(CC(=O)O)C(=O)O)cc3)ccc2n1 (stereo not given)",
    "RESULT": "12% (inactive)"
  },
  {
    "MOLECULE": "O=C1OC2C(O1)C1(Cl)C(Cl)=C(Cl)C2(Cl)C1(Cl)Cl (stereo not given)",
    "RESULT": "-2% (inactive)"
  },
  {
    "MOLECULE": "c1c(N2CCOCC2)ssc1=[N+]1CCOCC1",
    "RESULT": "-3% (inactive)"
  },
  {
    "MOLECULE": "O=C1c2ccc3ccccc3c2CCC1N1CCCCC1 (stereo not given)",
    "RESULT": "2% (inactive)"
  },
  {
    "MOLECULE": "COc1cc(O)c2c(O)c3c(c4c2c1[C@]1(C4)C(C)=CCCC1(C)C)[C@H](O)[C@@]1(O)CC(=O)C(C(N)=O)=C(O)[C@@]1(O)C3=O",
    "RESULT": "-37% (inactive)"
  },
  {
    "MOLECULE": "Cc1ccc2nc3sc(=O)sc3nc2c1",
    "RESULT": "13% (inactive)"
  },
  {
    "MOLECULE": "O=C(O)CCCc1cc(I)c(N(CCCl)CCCl)c(I)c1",
    "RESULT": "-60% (inactive)"
  },
  {
    "MOLECULE": "O=[N+]([O-])c1ccc(N2CCC(CCCC3CCN(c4ccc([N+](=O)[O-])cc4[N+](=O)[O-])CC3)CC2)c([N+](=O)[O-])c1",
    "RESULT": "7% (inactive)"
  },
  {
    "MOLECULE": "CC1CN=C(Nc2ccccc2)S1 (stereo not given)",
    "RESULT": "-5% (inactive)"
  },
  {
    "MOLECULE": "CC[C@](O)(C(=O)O)c1cc2n(c(=O)c1CO)Cc1cc3ccccc3nc1-2",
    "RESULT": "95% (active)"
  }
]
